Test details: NCI Yeast Anticancer Drug Screen. Data for the cln2 rad14 strain (AID 165);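 further: 0% = growth equal to vehicle treated cultures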
Experimental setup: S. cerevisiae cln2 rad14 strain, at 50.0 µM, active compounds read high
About 79,000 compounds went through this panel and 15% of them were active in at least one assay; those are over-represented in the sample as a whole. Activity calls are given as the source filed them. No stated cut-off is given here; in the data, active means growth inhibition above about 70%; inactive means the rest.
// values below are reported growth inhibition

Recorded results for 4 compounds are shown here.
{"Compound": "CCC(C(=O)O)=C1CCCCC1", "growth inhibition": "9.15% (inactive)"}
{"Compound": "COC(=O)NC(Nc1ccc(Cl)cc1Cl)(C(F)(F)F)C(F)(F)F", "growth inhibition": "20.6% (inactive)"}
{"Compound": "OCc1cc(Cl)cc(Cc2cc(Cl)cc(Cc3cc(Cl)cc(Cc4cc(Cl)cc(Cc5cc(Cl)cc(CO)c5O)c4O)c3O)c2O)c1O", "growth inhibition": "-28.4% (inactive)"}
{"Compound": "O=S(=O)(NC1CCC(CC2CCCCC2)CC1)c1ccccc1 (stereo not given)", "growth inhibition": "40% (inactive)"}

# context switch: different compound, same growth inhibition
Name the recorded growth inhibition for N#Cc1sc2c(c1OC(=O)c1ccccc1)c(=O)n(-c1ccccc1)c(=S)n2-c1ccccc1 .
-12.4% (inactive)

---

Test details: NCI Yeast Anticancer Drug Screen. Data for the rad50 strain (AID 155);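 further: 0% = growth of vehicle-only cultures of the same strain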
Experimental setup: S. cerevisiae rad50 strain growth inhibition; at 50.0 µM; active compounds read high
This is part of a sample that, as a whole, favours compounds with a hit. Of some 79,000 tested, about 15% had one in any assay.
Value kind: growth inhibition (%)
Kindly answer with a numeric value in %, unit omitted.

Some solved entries appear below for comparison.
{"Compound": "Nc1ccc(CP(=O)(O)O)cc1", "Quantity unit": "%", "Reported measurement": -8.4}
{"Compound": "CN1NC(c2ccccc2)=NN=C1c1ccccc1", "Quantity unit": "%", "Reported measurement": -8.5}
{"Compound": "C[N+]1(C)CC2C3C=C(I)C(C3)C2C1 (stereo not drawn)", "Quantity unit": "%", "Reported measurement": 26.8}
{"Compound": "C=CCC(CNC(C)=O)(C1=CCCCC1)c1ccccc1 (stereo not drawn)", "Quantity unit": "%", "Reported measurement": 1.95}
{"Compound": "COC1=C(C(c2cc(OC)c(OC)c(OC)c2)c2cc3c(cc2OC)OCO3)C(=O)OC1 (stereo not drawn)", "Quantity unit": "%", "Reported measurement": -18.6}

// growth inhibition lookup, key: CCOC(=O)N(C)N=NCCCl
15.2

Report growth inhibition for CN(N)c1nc2c(N)ncnc2n1C1OC(CO)C(O)C1O (stereo not drawn) please.
25.9

Could you tell me which growth inhibition is on file for O=C(CP(c1ccccc1)c1ccccc1)c1cccc(C(=O)CP(c2ccccc2)c2ccccc2)c1 ?
-4.3

Give its growth inhibition value. Item: O=CNc1ccc(S(=O)(=O)c2ccc(NC=O)cc2)cc1
4.05

Name the reported growth inhibition value associated with the compound N#Cc1ccc(N=NN2CCOC2)cc1
20.6

Would you kindly share the measured growth inhibition for Nc1nc(N)c(NC(=O)CCCO)c(=O)[nH]1 ?
-3.95

---

Test details: NCI Yeast Anticancer Drug Screen. Data for the rad50 strain (AID 155);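 further: 0% = growth of vehicle-only cultures of the same strain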
Experimental setup: S. cerevisiae rad50 strain growth inhibition; at 50.0 µM
This is part of a sample that, as a whole, favours compounds with a hit. Of some 79,000 tested, about 15% had one in any assay. Calls of active or inactive are those of the source. Rule as the data show it: active = growth inhibition above about 70%; inactive = the rest.
Mark one answer only. Choices: active, inactive

Example entries and their recorded answers appear below.
{"Compound": "CC(=O)c1cccc(NC(=O)Oc2ccc(Cl)cc2Cl)c1", "Qualitative label": "inactive"}
{"Compound": "CNC(=O)C1CCCN1C(=O)C(Cl)Cl (stereo not drawn)", "Qualitative label": "inactive"}
{"Compound": "CC(C)Oc1c(O)c2c3c(oc(=O)n3C=CC2c2ccccc2)c1OC(C)C (stereo not drawn)", "Qualitative label": "active"}
{"Compound": "Nc1ccc(S(=O)(=O)NC(=O)NCc2ccccc2)cc1", "Qualitative label": "inactive"}
{"Compound": "CC(=O)C1=CCC2[C@H]3CC=C4C[C@H](O)CC[C@@]4(C)C3CC[C@@]12C (stereo partly drawn)", "Qualitative label": "inactive"}
{"Compound": "Cc1ccc(S(=O)(=O)Nc2ccc3ncsc3c2[N+](=O)[O-])cc1", "Qualitative label": "active"}
{"Compound": "BrC1CC2CC1C1C2CC2OC21 (stereo not drawn)", "Qualitative label": "inactive"}
{"Compound": "CCN(CC)N1C(=O)[N+](CC)(CC)N=C1[O-]", "Qualitative label": "inactive"}

Tell me the assay call for CCC(CC)C1CC[N-]CC1.CCC(CC)C1CC[N-]CC1.CCC(CC)C1CC[N-]CC1.CCC(CC)C1CC[N-]CC1.N#C[S-].N#C[S-].[Co] please.
inactive

Any idea what this test logged for Cc1cc(C)n(C2=NCCN2)n1 ?
inactive

Would you mind telling me which call this test gave Cc1cc(N(CCC#N)CCC#N)ccc1/C=C(\NC(=O)/C=C/c1ccccc1)C(=O)Nc1ccc(Cl)cc1 ?
inactive

---

Test details: NCI Yeast Anticancer Drug Screen. Data for the cln2 rad14 strain (AID 165);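 further: 0% = growth equal to vehicle treated cultures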
Experimental setup: S. cerevisiae cln2 rad14 strain, at 50.0 µM, active compounds read high
This is part of a sample that, as a whole, favours compounds with a hit. Of some 79,000 tested, about 15% had one in any assay.
Value kind: growth inhibition (%)
# unit: % | format: bare number

Recorded growth inhibition, per entry:
{"Compound": "CC1N(N2C(=O)CS(=O)(=O)C2C)C(=O)CS1(=O)=O (stereo not given)", "Quantity unit": "%", "growth inhibition": 15.1}
{"Compound": "ClNc1nc(NCl)nc(NCl)n1", "Quantity unit": "%", "growth inhibition": 2}
{"Compound": "CC1CSC(=S)N1C(=O)N1C(=S)SCC1C (stereo not given)", "Quantity unit": "%", "growth inhibition": -10.8}

Entry Cn1c(-c2ccc(/C=N/N=C(N)N)cc2)c[n+]2ccccc12 has what growth inhibition?
0.8

---

This section presents compounds with their documented growth inhibition values.
Test details: NCI Yeast Anticancer Drug Screen. Data for the rad50 strain (AID 155);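 further: 0% = growth of vehicle-only cultures of the same strain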
Experimental setup: S. cerevisiae rad50 strain growth inhibition; at 50.0 µM; active compounds read high
This is part of a sample that, as a whole, favours compounds with a hit. Of some 79,000 tested, about 15% had one in any assay.
Report the figure in % without appending any unit label.

Example cases with answers are listed next.
{"Compound": "Cc1nc2c(o1)C(=Nc1ccccc1)c1ccccc1C2=Nc1ccccc1", "Value kind": "growth inhibition", "Quantity unit": "%", "Reported measurement": -7.45}
{"Compound": "Cc1cnc(C)c(C(O)c2ccccc2)n1 (stereo not drawn)", "Value kind": "growth inhibition", "Quantity unit": "%", "Reported measurement": -5.9}
{"Compound": "CC1CCC(C(C)(C)c2ccccc2)C(=O)C1 (stereo not drawn)", "Value kind": "growth inhibition", "Quantity unit": "%", "Reported measurement": 12.1}
{"Compound": "NC(=O)NCC(N)C(=O)O (stereo not drawn)", "Value kind": "growth inhibition", "Quantity unit": "%", "Reported measurement": -4.75}

For CC1SC(=S)NC1=O (stereo not drawn) , what is its reported growth inhibition?
-16

Consider the compound shown here: Cc1noc(N)c1Sc1ccc(Br)cc1 What is its recorded growth inhibition?
98.7

Item O=C(OC1(c2nccc3ccccc23)CCCN(Cc2ccccc2)C1)c1ccccc1 (stereo not drawn) has what recorded growth inhibition?
28.9

// returns reported growth inhibition for input O=C1Nc2cc(F)ccc2C1=O
15.5

Consider the compound COc1nc(NC2OCC(O)C(O)C2O)c(Br)c(=O)n1C (stereo not drawn) and give its measured growth inhibition.
4.9

Fill in the blank: the reported growth inhibition of O=C1CSC=NN1c1ccccc1 is ____.
-12.8

---

Test details: NCI Yeast Anticancer Drug Screen. Data for the bub3 strain (AID 167)
Experimental setup: S. cerevisiae bub3 mutant strain, at 50.0 µM
Compounds without any hit were thinned out: in the full panel of roughly 79,000, 15% have a hit. Activity calls are given as the source filed them. Cut-off read from the data, not from the text of the source: active = growth inhibition above about 70%; inactive = the rest.
Could you please pick one outcome from this set? active, inactive

{"Molecule": "CC1(C)CC([N+](C)(C)CCCCCC[N+](C)(C)C2CC(C)(C)N(O)C(C)(C)C2)CC(C)(C)N1O", "Qualitative label": "inactive"}
{"Molecule": "[O-]c1on[n+]2c1c(Nc1ccc(Cl)cc1)nc1ccccc12", "Qualitative label": "inactive"}
{"Molecule": "C(=N\\N1CCN(/N=C/c2ccc(OCc3ccccc3)cc2)CC1)/c1ccc(OCc2ccccc2)cc1", "Qualitative label": "inactive"}
{"Molecule": "CCN(CC)CCCNc1cc(OC)c(Cl)c2cccnc12", "Qualitative label": "inactive"}

Fill in: this test's call for CCN1CCCC(Cl)C1 (stereo not given) is ___
inactive

I'd appreciate the recorded outcome for Nc1ncncc1Oc1ccccc1 from this test.
inactive

Could you please tell me the result logged for CCCCN1C(=O)C(CC(=O)OCC)SC1=S (stereo not given) in this assay?
inactive

Record lookup: outcome of this test for C[C@H]1C[C@](C)(CO)Oc2oc3ccccc3c(=O)c21 ?
inactive

Returns: the outcome recorded for c1ccc2cc(CCc3cc4ccccc4cn3)ncc2c1 in this assay.
inactive

Look up the recorded call for OC(C/C(=N\Nc1ccccc1)c1ccc(F)cc1)(C(F)(F)F)C(F)(F)F in this test.
active

Could you check what this test reported for COc1ccc(/C=N/NC(=O)NCCCN(C)C)cc1 ?
inactive

Kindly provide the recorded test outcome for the following molecule: O=C1c2ccccc2C(=O)N1CC(O)COCc1ccccc1 (stereo not given)
inactive
